Target under test: human CYP2J2, CYP2J2 (gene 1573)
Assay details: NVS_ADME_hCYP2J2: NovaScreen (NVS) CYP450-related Enzyme Activity (ADME) Assay for human CYP2J2 (AID 2283106)
Results filed as inconclusive are left out. Calls of active or inactive are those of the source. How the source made its calls: active means hit-call score of the fitted dose curve at least 0.9, where 1 is the maximum; inconclusive means response in the unintended direction; inactive means score below 0.9.
Listed molecules paired with reported AC50
Endpoint: AC50

Molecule | Endpoint | Experimental value
COP(=S)(OC)SCn1nnc2ccccc2c1=O | AC50 | 1.87 µM (active)
COP(=S)(OC)Oc1ccc([N+](=O)[O-])c(C)c1 | AC50 | 0.612 µM (active)
COc1ccc(-c2ccccc2)cc1NNC(=O)OC(C)C | AC50 | 0.407 µM (active)
COCc1cnc(C2=NC(C)(C(C)C)C(=O)N2)c(C(=O)O)c1 (stereo not given) | AC50 | 3.83 µM (active)
CCNP(=S)(OC)O/C(C)=C/C(=O)OC(C)C (stereo not given) | AC50 | 1.33 µM (active)

----------
Assay details: CCTE_Mundy_HCI_iCellGluta_NOG_NeuriteLength: CCTE's Neurite Outgrowth Assay in iCellGluta cells for Neurite Length, Mundy Lab (AID 2284318)
Inconclusive results are not listed. The source made the active and inactive calls. Rule for the calls: active = hit-call score of the fitted dose curve at least 0.9, where 1 is the maximum; inconclusive = response in the unintended direction; inactive = score below 0.9.
Classes used: 1 (yes) (active), 0 (no) (inactive)

Smiles str | Classification
Cc1c(COC(=O)[C@@H]2[C@H](/C=C(\Cl)C(F)(F)F)C2(C)C)cccc1-c1ccccc1 | 1 (yes)
COP(=S)(OC)SCn1nnc2ccccc2c1=O | 1 (yes)
CS(=O)(=O)c1ccc(C(=O)C2C(=O)CCCC2=O)c([N+](=O)[O-])c1 | 0 (no)
CCNC(=O)NC(=O)C(C#N)=NOC | 0 (no)
CS(=O)(=O)c1cc(C(F)(F)F)ccc1C(=O)c1cnoc1C1CC1 | 0 (no)

----------
Read-out: Pyruvate Dehydrogenase Kinase 4 (PDK4), PDK4 (gene 5166)
Assay details: LTEA_HepaRG_PDK4: Life Technologies and Expression Analysis (LTEA) Assay for Pyruvate Dehydrogenase Kinase 4 (PDK4) using HepaRG (AID 2283525)
Experimental setup: mRNA level, 48 h; actives raise or lower the signal
The source made the active and inactive calls. The calls were made as follows: active = hit-call score of the fitted dose curve at least 0.9, where 1 is the maximum; inactive = score below 0.9.

Compound | AC50
CC(C)N1C(=O)N(c2ccccc2)CSC1=NC(C)(C)C | 87.8 µM (active)
CC(C)C1(C)N=C(c2ncccc2C(=O)O)NC1=O (stereo unspecified) | inactive
CC1(C)CON(Cc2ccccc2Cl)C1=O | inactive
COP(=O)(OC)O/C(C)=C/C(=O)N(C)C | inactive
CC(C)=CC1C(C(=O)OCc2coc(Cc3ccccc3)c2)C1(C)C (stereo unspecified) | 50 µM (active)
CC(C)Oc1cccc(NC(=O)c2ccccc2C(F)(F)F)c1 | 50 µM (active)
CC(C)(C)C(=O)C(Oc1ccc(Cl)cc1)n1cncn1 (stereo unspecified) | inactive
O=C(O)c1c(Cl)ccc2cc(Cl)cnc12 | inactive
CCC(C)n1c(=O)[nH]c(C)c(Br)c1=O (stereo unspecified) | 50 µM (active)
Cn1c(-c2ccccc2)cc(-c2ccccc2)[n+]1C | inactive
CNC(=O)Oc1cccc2ccccc12 | inactive
Cc1cc(C)nc(Nc2ccccc2)n1 | inactive
O=c1n(Cl)c(=O)n(Cl)c(=O)n1Cl | inactive
CCCCC(O)(Cn1cncn1)c1ccc(Cl)cc1Cl (stereo unspecified) | 78.8 µM (active)
COCC(C)N(C(=O)CCl)c1c(C)csc1C (stereo unspecified) | inactive
CC(C)NC(=O)N1CC(=O)N(c2cc(Cl)cc(Cl)c2)C1=O | 12.7 µM (active)
CCCCC(C#N)(Cn1cncn1)c1ccc(Cl)cc1 (stereo unspecified) | inactive
Clc1cccc(C(Cl)(Cl)Cl)n1 | inactive
CCNC(=O)NC(=O)C(C#N)=NOC | inactive
CCOP(=O)(OCC)Oc1nc(Cl)c(Cl)cc1Cl | inactive
N#Cc1c[nH]cc1-c1cccc2c1OC(F)(F)O2 | 83.9 µM (active)
CS(=O)(=O)c1cc(C(F)(F)F)ccc1C(=O)c1cnoc1C1CC1 | inactive
COC(=O)N(C(=O)N1CO[C@@]2(C(=O)OC)Cc3cc(Cl)ccc3C2=N1)c1ccc(OC(F)(F)F)cc1 | 40 µM (active)
Nc1cnn(-c2ccccc2)c(=O)c1Cl | inactive
N#CN=C1SCCN1Cc1ccc(Cl)nc1 | inactive
COC(=O)NC(=S)Nc1ccccc1NC(=S)NC(=O)OC | inactive

----------
Read-out: Vascular endothelial growth factor receptor 2 (Homo sapiens)
Assay details: BSK_4H_VEGFRII: BioMAP Diversity Plus: 4H Assay for Vascular endothelial growth factor receptor 2 (VEGFR2) Biomarker Activity (AID 2283031)
Experimental setup: primary human endothelial cells (HUVEC); actives raise or lower the signal
Activity calls are given as the source filed them. How the source made its calls: active means hit-call score of the fitted dose curve at least 0.9, where 1 is the maximum; inactive means score below 0.9.
Classes used: active, inactive

Compound | Classification
CCOc1cc(C(C)(C)C)ccc1C1COC(c2c(F)cccc2F)=N1 (stereo unspecified) | active
O=C1C2CC=CCC2C(=O)N1SC(Cl)(Cl)Cl (stereo unspecified) | inactive
COc1cc(Cl)c(OC)cc1Cl | inactive
CCOc1nc(F)cc2nc(S(=O)(=O)Nc3c(Cl)cccc3Cl)nn12 | inactive
C=CCOC(=O)C(C)(C)OC(=O)c1cc(-n2c(=O)cc(C(F)(F)F)n(C)c2=O)ccc1Cl | inactive
N#Cc1c[nH]cc1-c1cccc2c1OC(F)(F)O2 | inactive
CCOP(=O)(OCC)Oc1nc(Cl)c(Cl)cc1Cl | inactive
CNC(=O)N(C)c1nnc(C(C)(C)C)s1 | inactive
Cn1c(-c2ccccc2)cc(-c2ccccc2)[n+]1C | inactive
CC(C)Nc1nc(Cl)nc(NC(C)C)n1 | inactive
CC(C)N1C(=O)c2ccccc2NS1(=O)=O | inactive
CC1(C)CON(Cc2ccccc2Cl)C1=O | inactive
COC(=O)NS(=O)(=O)c1ccc(N)cc1 | inactive
O=c1n(Cl)c(=O)n(Cl)c(=O)n1Cl | inactive
CC(C)NC(=O)N1CC(=O)N(c2cc(Cl)cc(Cl)c2)C1=O | inactive
COCc1cnc(C2=NC(C)(C(C)C)C(=O)N2)c(C(=O)O)c1 (stereo unspecified) | inactive
Nc1c(Cl)c(F)nc(OCC(=O)O)c1Cl | inactive
COC(=O)NC(=S)Nc1ccccc1NC(=S)NC(=O)OC | inactive
Cc1ccc(N=CN(C)C=Nc2ccc(C)cc2C)c(C)c1 | active
CCC(C)n1c(=O)[nH]c(C)c(Br)c1=O (stereo unspecified) | inactive
COc1cc(OC)nc(NC(=O)NS(=O)(=O)c2ncccc2OCC(F)(F)F)n1 | inactive
Cc1cc(C)nc(Nc2ccccc2)n1 | inactive
N#CN=C1SCCN1Cc1ccc(Cl)nc1 | inactive
CCCCC(C#N)(Cn1cncn1)c1ccc(Cl)cc1 (stereo unspecified) | inactive
Cc1nc(N(C)C)nc(OC(=O)N(C)C)c1C | inactive
CCCCC(O)(Cn1cncn1)c1ccc(Cl)cc1Cl (stereo unspecified) | inactive

----------
Target under test: Androgen Receptor/SRC-1 Co-activator, AR (gene 367) (UniProt P10275)
Sequence (P10275 whole entry, looked up): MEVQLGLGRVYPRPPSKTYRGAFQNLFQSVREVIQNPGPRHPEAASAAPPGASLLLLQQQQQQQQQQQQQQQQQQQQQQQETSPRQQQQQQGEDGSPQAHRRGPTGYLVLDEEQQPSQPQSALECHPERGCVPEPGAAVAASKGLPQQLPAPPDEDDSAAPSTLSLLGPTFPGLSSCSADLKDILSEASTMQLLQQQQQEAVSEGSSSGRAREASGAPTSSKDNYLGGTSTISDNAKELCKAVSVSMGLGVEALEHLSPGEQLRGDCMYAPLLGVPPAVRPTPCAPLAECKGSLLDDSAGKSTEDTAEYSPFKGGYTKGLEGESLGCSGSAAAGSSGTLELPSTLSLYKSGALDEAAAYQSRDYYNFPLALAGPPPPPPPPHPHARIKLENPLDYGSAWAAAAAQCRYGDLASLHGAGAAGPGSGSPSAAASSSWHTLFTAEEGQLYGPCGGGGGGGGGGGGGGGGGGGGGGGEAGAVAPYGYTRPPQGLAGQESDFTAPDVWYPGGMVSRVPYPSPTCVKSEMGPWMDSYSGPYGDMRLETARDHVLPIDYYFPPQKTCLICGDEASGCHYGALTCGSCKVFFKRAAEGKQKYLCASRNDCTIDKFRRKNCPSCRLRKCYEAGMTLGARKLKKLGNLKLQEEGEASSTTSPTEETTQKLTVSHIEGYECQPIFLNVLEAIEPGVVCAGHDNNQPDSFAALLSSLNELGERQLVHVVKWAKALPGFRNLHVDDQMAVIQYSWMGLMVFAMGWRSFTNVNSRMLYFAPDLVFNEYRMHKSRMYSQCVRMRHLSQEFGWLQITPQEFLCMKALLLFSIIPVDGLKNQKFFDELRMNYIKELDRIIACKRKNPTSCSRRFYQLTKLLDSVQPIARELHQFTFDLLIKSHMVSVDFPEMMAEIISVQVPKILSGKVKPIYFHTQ
Assay details: OT_AR_ARSRC1_0480: Odyssey Thera (OT) 8-hour HEK293T Protein-Complementation Assay for Androgen Receptor/SRC-1 Co-activator (AID 2283354);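 further: hits raise the complementation signal above DMSO so AC50 marks enhancers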
Results filed as inconclusive are left out. Active and inactive are the calls of the source. Rule for the calls: active = hit-call score of the fitted dose curve at least 0.9, where 1 is the maximum; inconclusive = response in the unintended direction; inactive = score below 0.9.
Classes used: active, inactive

Compound | Classification
CC1(C)CCC(=Cc2ccc(Cl)cc2)C1(O)Cn1cncn1 (stereo not given) | active
Nc1c(Cl)c(F)nc(OCC(=O)O)c1Cl | inactive
CCCCOCN(C(=O)CCl)c1c(CC)cccc1CC | active
COP(=S)(OC)SCn1nnc2ccccc2c1=O | inactive
COCc1cnc(C2=NC(C)(C(C)C)C(=O)N2)c(C(=O)O)c1 (stereo not given) | inactive
CCOc1cc(C(C)(C)C)ccc1C1COC(c2c(F)cccc2F)=N1 (stereo not given) | active
CCCCC(O)(Cn1cncn1)c1ccc(Cl)cc1Cl (stereo not given) | active
CCOP(=O)(OCC)Oc1nc(Cl)c(Cl)cc1Cl | inactive
COc1ccc(-c2ccccc2)cc1NNC(=O)OC(C)C | inactive
COC(=O)N(C(=O)N1CO[C@@]2(C(=O)OC)Cc3cc(Cl)ccc3C2=N1)c1ccc(OC(F)(F)F)cc1 | inactive

----------
Read-out: HMG-CoA synthase (HMGCS2), HMGCS2 (gene 3158)
Assay details: CLD_HMGCS2_6hr: CellzDirect (CLD) Gene Expression Assay for HMG-CoA synthase (HMGCS2) at 6 hours (AID 2283682);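 further: actives raise HMGCS2 transcript above the 0.2% DMSO vehicle baseline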
Results filed as inconclusive are left out. The source made the active and inactive calls. How the source made its calls: active means hit-call score of the fitted dose curve at least 0.9, where 1 is the maximum; inconclusive means response in the unintended direction; inactive means score below 0.9.
Classes used: active, inactive

Molecule | Classification
O=C(Nc1ccccc1-c1ccc(Cl)cc1)c1cccnc1Cl | inactive
CS(=O)(=O)c1cc(C(F)(F)F)ccc1C(=O)c1cnoc1C1CC1 | active
CCNP(=S)(OC)O/C(C)=C/C(=O)OC(C)C (stereo unspecified) | inactive
CC(C)N1C(=O)c2ccccc2NS1(=O)=O | active
CCOC(=O)C(C)OC(=O)c1cc(Oc2ccc(C(F)(F)F)cc2Cl)ccc1[N+](=O)[O-] (stereo unspecified) | active
COc1cc(OC)nc(NC(=O)NS(=O)(=O)c2ncccc2OCC(F)(F)F)n1 | inactive
CC1(C)C(C=C(Cl)Cl)C1C(=O)OC(C#N)c1cccc(Oc2ccccc2)c1 (stereo unspecified) | inactive
Nc1cnn(-c2ccccc2)c(=O)c1Cl | inactive
CCOc1cc(C(C)(C)C)ccc1C1COC(c2c(F)cccc2F)=N1 (stereo unspecified) | inactive
CCN(CC)c1nc(C)cc(OP(=S)(OC)OC)n1 | inactive
Cc1ccc(N=CN(C)C=Nc2ccc(C)cc2C)c(C)c1 | inactive
COC(=O)NS(=O)(=O)c1ccc(N)cc1 | inactive
Cc1cnc(C2=NC(C)(C(C)C)C(=O)N2)c(C(=O)O)c1 (stereo unspecified) | inactive
C=C(C)CN(CC)c1c([N+](=O)[O-])cc(C(F)(F)F)cc1[N+](=O)[O-] | inactive
Clc1cccc(C(Cl)(Cl)Cl)n1 | inactive
CCCN(CC)CC1COC2(CCC(C(C)(C)C)CC2)O1 (stereo unspecified) | inactive
Nc1c(Cl)c(Cl)nc(C(=O)O)c1Cl | inactive
Cn1c(-c2ccccc2)cc(-c2ccccc2)[n+]1C | inactive
COc1ccc(-c2ccccc2)cc1NNC(=O)OC(C)C | inactive
COC(=O)NC(=S)Nc1ccccc1NC(=S)NC(=O)OC | inactive
O=c1n(Cl)c(=O)n(Cl)c(=O)n1Cl | inactive

The measured values listed here are drawn from PubChem BioAssay (EPA / NIEHS).
